- method-description: Plasma blood levels in mice following subcutaneous administration
- Type: in vivo
- condition-parameters: mouse, plasma, SC 50 mg per kg, 10 min, mean of 3, read-out: Conc. (mg/L) 10 min

sample-smiles: C[C@@H](O)[C@H]1C(=O)N2C(C(=O)O)=C(C(C)(C)CCCN)O[C@H]12
concentration at 10 min [mg/L]: 25.4

###

- method-description: Plasma blood levels in mice following subcutaneous administration
- Format: in vivo
- condition-parameters: mouse, plasma, SC 50 mg per kg, 30 min, mean of 3, read-out: Conc. (mg/L) 30 min
recorded-endpoint: concentration at 30 min (mg/L)

sample-smiles: C[C@@H](O)[C@H]1C(=O)N2C(C(=O)O)=C(C(C)(C)CCCN)O[C@H]12
recorded-number: 2.89
